# Tested on: Plasmodium falciparum
# TEST PROTOCOL: GSK_TCMDC: Inhibition of Plasmodium falciparum 3D7 in whole erythrocytes, using parasite LDH activity as an index of growth.
# Assay type: functional, organism-based
# COND: Plasmodium falciparum, 3D7
# log10 of XC50 per record follows
MEASURE: log10 of XC50 (log10 of the value in nM)

1. CO/C(=C\C=C\c1cc2cc(Cl)c(Cl)cc2[nH]1)C(=O)NCCCN1CCN(C2CCCCC2)CC1	3.00
2. N#Cc1cccc(NC(=O)Nc2ccc(-c3cccc(-c4nc5cc(F)ccc5[nH]4)c3)cc2)c1	2.44
3. O=C(Nc1cccc(F)c1)N(Cc1ccc(-c2ccc(CN3CCNCC3)cc2)cc1)C1CCN(Cc2ccccc2)CC1	2.89
4. O=c1cc(NCCCN(Cc2ccccc2)Cc2ccccc2)[nH]c2ccccc12	2.76
5. Cc1ccc(C2=NNC3(S2)C(=O)Nc2ccc(C)cc23)cc1 (stereo not drawn)	3.01
6. Cc1cc(F)ccc1-c1nc(NCC(O)CNCCc2ccccc2)nc2c1ccc(=O)n2-c1c(F)cccc1F (stereo not drawn)	2.73
7. N#Cc1ccccc1C1CCN(C2CCC(Nc3cc(-c4cccnc4)ccn3)CC2)CC1 (stereo not drawn)	2.98
8. CCCNCc1ccc(-c2ccc(CN(CCOC)C(=O)COc3ccccc3Cl)cc2)nc1	2.96
9. Fc1ccccc1CNc1ncc(-c2ccsc2)c(-c2nccs2)n1	1.73
10. CC(CN(C)C)C(=O)Nc1cccc(-c2cccc(-c3nc4ccccc4[nH]3)c2)c1 (stereo not drawn)	3.03
11. COc1ccccc1NS(=O)(=O)c1cc(C(=O)Nc2ccc(N3CCOCC3)c(S(=O)(=O)Nc3ccccc3Cl)c2)ccc1Cl	2.92
12. O=C(NC(CCCN1CCC(c2ccccc2)CC1)c1ccc(Cl)c(Cl)c1)c1cc(C(F)(F)F)cc(C(F)(F)F)c1 (stereo not drawn)	2.94
13. COc1ccc(S(=O)(=O)N(c2cc(Br)cc3c2OCC3)S(=O)(=O)c2ccc(OC)c(N3CCN(C)CC3)c2)cc1N1CCN(C)CC1	3.07
14. C/C=C/COc1ccc(-c2c(C)[nH]c(C)c(Cl)c2=O)cc1	2.29
15. O=[N+]([O-])c1cccc(-c2nc(-c3ccc(Br)cc3)[nH]c2-c2ccc(Br)cc2)c1	2.88
16. CS(=O)(=O)c1ccc(OCCCN(Cc2ccccc2C(F)(F)F)c2ccc(C#N)c(C(F)(F)F)c2)cc1	3.01
17. N#Cc1ccc(-c2ccc(C(=O)NCCCCN3CCC(c4cc(Br)c5c(c4OCC(N)=O)CCCC5)CC3)cc2)cc1	2.90
18. CCc1ccc(-c2nc3cc(NC(=O)c4ccc([N+](=O)[O-])o4)ccc3o2)cc1	2.40

----------
# XC50 per record follows
# Tested on: Plasmodium falciparum
# TEST PROTOCOL: GSK_TCMDC: Inhibition of Plasmodium falciparum 3D7 in whole erythrocytes, using parasite LDH activity as an index of growth.
# Format: functional, organism-based
# COND: Plasmodium falciparum, 3D7
MEASURE: XC50 (nM)

1. Cc1ccc(CN2CCCN(Cc3cccc(NC(=O)c4ccc(Cl)c(Cl)c4)c3)CC2)cc1	902
2. FC(F)(F)c1ccc2[nH]c(-c3ccc(-c4cccc(CN5CCC(CCN6CCCCC6)CC5)c4)cc3)nc2c1	153
3. O=C(Nc1ccc(-c2ccccc2)cc1)Nc1cccc(Cn2nc(Cl)c(N3CCCNCC3)cc2=O)c1	676
4. NC(=O)Nc1ccc2c(Nc3ccc(OCc4ccccc4)cc3)ncnc2c1	1260
5. COc1cc(-c2nc(-c3ccccc3)c(-c3ccccc3)[nH]2)ccc1OCCN(C)C	303
6. CN1CCC(C(=O)Nc2ccc(-c3ccc(-c4nc5cc(C(F)(F)F)ccc5[nH]4)s3)cc2)CC1	987
7. N=c1ccn(CC(=NO)c2ccc(Cl)c(Cl)c2)cc1	943
8. CC(=O)Oc1c(C2C=CCCC2)c(OC(C)=O)c2ccccc2c1OC(C)=O (centres undefined)	605
9. CC(=O)Nc1ccc(CN2CCC(N(C)c3ccc(NC(=O)c4cccc(C)c4)cc3)CC2)cc1	986
